Target: TGF-beta receptor type-2 (Homo sapiens, UniProt P37173)
Sequence (P37173 whole entry): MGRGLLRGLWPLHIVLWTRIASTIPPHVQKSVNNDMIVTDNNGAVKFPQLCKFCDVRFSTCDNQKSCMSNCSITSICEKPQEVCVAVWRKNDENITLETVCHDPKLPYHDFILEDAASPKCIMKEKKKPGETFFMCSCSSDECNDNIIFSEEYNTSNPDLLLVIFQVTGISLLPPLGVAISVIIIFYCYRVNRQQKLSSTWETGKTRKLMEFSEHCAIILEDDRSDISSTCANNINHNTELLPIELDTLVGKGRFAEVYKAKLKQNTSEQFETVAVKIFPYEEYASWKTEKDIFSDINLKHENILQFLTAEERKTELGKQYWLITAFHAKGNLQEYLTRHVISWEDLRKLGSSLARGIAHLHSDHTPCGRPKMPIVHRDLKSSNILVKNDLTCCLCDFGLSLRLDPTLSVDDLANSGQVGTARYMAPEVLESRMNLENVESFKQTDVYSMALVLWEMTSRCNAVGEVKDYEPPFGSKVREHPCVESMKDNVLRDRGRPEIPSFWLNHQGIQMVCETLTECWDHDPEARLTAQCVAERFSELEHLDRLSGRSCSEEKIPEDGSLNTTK
Assay: Inhibition of recombinant human TGFbeta R2 expressed in Sf9 cells
Recorded pIC50 values for a group of molecules are listed next.
Scale: negative log10 of molar concentration, which is what pIC50 denotes.

In [3]: df
Out[3]:
                                   molecule  measuredvalue
0  Cc1cccc(-c2nn3c(c2-c2ccc4ncn(CCCO)c4c2)CCC3)n1           6.16
1      c1ccc(-c2n[nH]cc2-c2ccnc3ccccc23)nc1           6.40
2  OCCCn1cnc2ccc(-c3c(-c4ccccn4)nn4c3CCC4)cc21           6.45

Ask | For "Cn1cnc2cc(-c3c(-c4ccccn4)nn4c3CCC4)ccc21" , what is its reported pIC50?
Reply | 4.71

Ask | For "c1ccc(-c2nn3c(c2-c2ccc4ncn(CCCN5CCCC5)c4c2)CCC3)nc1" , what is its reported pIC50?
Reply | 4.96

Ask | For Cc1cccc(-c2nn3c(c2-c2ccc4c(c2)ncn4CCCOC2CCCCO2)CCC3)n1 (stereo not given) , what is its reported pIC50?
Reply | 4.84
